Hi there, I'd appreciate the recorded IC50 for every entry that follows.
- Assay system: Glycogen synthase kinase-3 (Homo sapiens, UniProt P49840+P49841)
- Experiment: Inhibition of GSK3 (unknown origin) assessed as inhibition of phosphate incorporation into substrate in presence of radiolabeled ATP
- Assay type: protein assay

Lookup result for `Cn1c2c(O)cccc2c(=O)c2c3occc3c3c(c21)C=CC(C)(C)O3` ; measured IC50: > 10 µM

Lookup result for CC1(C)C=Cc2c(cc(O)c3c(=O)c4cccc(O)c4[nH]c23)O1 [ATOLAPHYLLIDINE] ; measured IC50: > 10 µM

Lookup result for `Cn1c2c(O)cccc2c(=O)c2c3c(c4c(c21)C=CC(C)(C)O4)C=C(O)C(C)(C)O3` ; measured IC50: > 10 µM

Lookup result for `COc1c(O)ccc2c(=O)c3c(O)cc4c(c3[nH]c12)C=CC(C)(C)O4` ; measured IC50: 2 µM

----------
Hi there, I'd appreciate the recorded IC50 for every entry that follows.
- Assay system: UniProtKB Q00535
- Experiment: Inhibition of CDK5 (unknown origin) assessed as inhibition of phosphate incorporation into substrate in presence of radiolabeled ATP

Lookup result for `Cn1c2c(O)cccc2c(=O)c2c3occc3c3c(c21)C=CC(C)(C)O3` ; measured IC50: > 10 µM

Lookup result for `CC1(C)C=Cc2c(cc(O)c3c(=O)c4cccc(O)c4[nH]c23)O1` ; measured IC50: > 10 µM

Lookup result for `Cn1c2c(O)cccc2c(=O)c2c3c(c4c(c21)C=CC(C)(C)O4)C=C(O)C(C)(C)O3` ; measured IC50: > 10 µM

Lookup result for `COc1c(O)ccc2c(=O)c3c(O)cc4c(c3[nH]c12)C=CC(C)(C)O4` ; measured IC50: 9 µM

----------
Measured quantity: pIC50
Scale note: pIC50 = -log10(concentration in M).

Value sought: pIC50, system Dual specificity protein kinase CLK2 (Homo sapiens, UniProt P49760), item `COc1c(O)ccc2c(=O)c3c(O)cc4c(c3[nH]c12)C=CC(C)(C)O4` . Result: 6.17

----------
- Assay system: Cyclin-dependent kinase 1 (Homo sapiens)
- Sequence (P06493 whole entry): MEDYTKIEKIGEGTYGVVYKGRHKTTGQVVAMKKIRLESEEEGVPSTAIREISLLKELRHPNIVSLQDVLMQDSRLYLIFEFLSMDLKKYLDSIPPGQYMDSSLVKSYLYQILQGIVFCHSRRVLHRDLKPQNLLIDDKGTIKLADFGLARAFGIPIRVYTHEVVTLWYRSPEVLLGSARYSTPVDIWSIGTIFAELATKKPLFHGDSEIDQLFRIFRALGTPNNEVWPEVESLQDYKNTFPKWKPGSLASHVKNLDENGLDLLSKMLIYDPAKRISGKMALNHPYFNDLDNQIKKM
- Experiment: Inhibition of CDK1 (unknown origin) assessed as inhibition of phosphate incorporation into substrate in presence of radiolabeled ATP
Hi there, I'd appreciate the recorded IC50 for every entry that follows.

Lookup result for `Cn1c2c(O)cccc2c(=O)c2c3occc3c3c(c21)C=CC(C)(C)O3` ; measured IC50: > 10 µM

Lookup result for `Cn1c2c(O)cccc2c(=O)c2c3c(c4c(c21)C=CC(C)(C)O4)C=C(O)C(C)(C)O3` ; measured IC50: > 10 µM

Lookup result for CC1(C)C=Cc2c(cc(O)c3c(=O)c4cccc(O)c4[nH]c23)O1 [ATOLAPHYLLIDINE] ; measured IC50: > 10 µM

Lookup result for `COc1c(O)ccc2c(=O)c3c(O)cc4c(c3[nH]c12)C=CC(C)(C)O4` ; measured IC50: 5.3 µM

----------
- Assay system: Dual specificity tyrosine-phosphorylation-regulated kinase 3 (Homo sapiens, UniProt O43781)
- Sequence (O43781 whole entry): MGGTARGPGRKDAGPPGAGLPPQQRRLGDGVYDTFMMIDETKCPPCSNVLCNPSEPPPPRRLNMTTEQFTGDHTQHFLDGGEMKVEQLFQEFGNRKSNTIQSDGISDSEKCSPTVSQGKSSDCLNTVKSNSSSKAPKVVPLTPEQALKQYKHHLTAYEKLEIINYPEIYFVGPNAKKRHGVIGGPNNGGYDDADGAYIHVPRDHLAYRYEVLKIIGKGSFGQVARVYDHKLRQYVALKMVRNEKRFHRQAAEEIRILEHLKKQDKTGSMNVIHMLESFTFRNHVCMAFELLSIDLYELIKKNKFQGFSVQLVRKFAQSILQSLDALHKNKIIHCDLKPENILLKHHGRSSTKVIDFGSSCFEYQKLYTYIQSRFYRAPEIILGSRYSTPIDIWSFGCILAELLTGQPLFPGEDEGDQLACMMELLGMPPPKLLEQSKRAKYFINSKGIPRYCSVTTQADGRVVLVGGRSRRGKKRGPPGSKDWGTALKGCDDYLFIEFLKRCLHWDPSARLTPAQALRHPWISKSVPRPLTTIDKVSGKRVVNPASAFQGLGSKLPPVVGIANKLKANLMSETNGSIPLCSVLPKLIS
Measured quantity: pIC50
Scale note: pIC50 = -log10(concentration in M).

Lookup result for `COc1c(O)ccc2c(=O)c3c(O)cc4c(c3[nH]c12)C=CC(C)(C)O4` ; measured pIC50: 5.92

----------
Measured quantity: pIC50
Scale note: pIC50 = -log10(concentration in M).

Value sought: pIC50, system UniProtKB Q63470, item `COc1c(O)ccc2c(=O)c3c(O)cc4c(c3[nH]c12)C=CC(C)(C)O4` . Result: 7.05

----------
Hi there, I'd appreciate the recorded IC50 for every entry that follows.
- Assay system: UniProt Q13627
- Experiment: Inhibition of DYRK1A (unknown origin) assessed as inhibition of phosphate incorporation into substrate in presence of radiolabeled ATP
Please respond with the number in nM and leave the unit unwritten.

Lookup result for `Cn1c2c(O)cccc2c(=O)c2c3occc3c3c(c21)C=CC(C)(C)O3` ; measured IC50: 5700

Lookup result for `COc1c(O)ccc2c(=O)c3c(O)cc4c(c3[nH]c12)C=CC(C)(C)O4` ; measured IC50: 75

Lookup result for `O=C1Nc2cc(Br)ccc2/C1=C1/Nc2ccccc2/C1=N\O` ; measured IC50: 52

Lookup result for `CC1(C)C=Cc2c(cc(O)c3c(=O)c4cccc(O)c4[nH]c23)O1` ; measured IC50: 2200

----------
Measured quantity: IC50 (nM)
Please respond with the number in nM and leave the unit unwritten.

Value sought: IC50, system Dual specificity protein kinase CLK3 (Homo sapiens, UniProt P49761), item `COc1c(O)ccc2c(=O)c3c(O)cc4c(c3[nH]c12)C=CC(C)(C)O4` . Result: 2300

----------
- Assay system: Dual specificity protein kinase CLK1 (Mus musculus)
- Experiment: Inhibition of CLK1 (mouse recombinant) assessed as inhibition of phosphate incorporation into substrate in presence of radiolabeled ATP
Measured quantity: pIC50
Scale note: pIC50 = -log10(concentration in M).

Lookup result for `COc1c(O)ccc2c(=O)c3c(O)cc4c(c3[nH]c12)C=CC(C)(C)O4` ; measured pIC50: 6.77

Lookup result for `Cn1c2c(O)cccc2c(=O)c2c3occc3c3c(c21)C=CC(C)(C)O3` ; measured pIC50: 5.15

----------
- Assay system: Cyclin-dependent kinase 5/CDK5 activator 1 (Homo sapiens)
- Sequence (Q00535 whole entry): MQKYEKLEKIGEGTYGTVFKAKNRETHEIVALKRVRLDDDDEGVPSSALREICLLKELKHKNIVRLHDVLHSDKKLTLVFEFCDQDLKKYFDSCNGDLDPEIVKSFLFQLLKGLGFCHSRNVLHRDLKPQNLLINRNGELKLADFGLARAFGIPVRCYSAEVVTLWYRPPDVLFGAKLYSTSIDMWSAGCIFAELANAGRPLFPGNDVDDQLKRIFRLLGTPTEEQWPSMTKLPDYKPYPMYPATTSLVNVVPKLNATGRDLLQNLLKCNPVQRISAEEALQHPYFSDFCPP
- Sequence (Q15078 whole entry, further chain): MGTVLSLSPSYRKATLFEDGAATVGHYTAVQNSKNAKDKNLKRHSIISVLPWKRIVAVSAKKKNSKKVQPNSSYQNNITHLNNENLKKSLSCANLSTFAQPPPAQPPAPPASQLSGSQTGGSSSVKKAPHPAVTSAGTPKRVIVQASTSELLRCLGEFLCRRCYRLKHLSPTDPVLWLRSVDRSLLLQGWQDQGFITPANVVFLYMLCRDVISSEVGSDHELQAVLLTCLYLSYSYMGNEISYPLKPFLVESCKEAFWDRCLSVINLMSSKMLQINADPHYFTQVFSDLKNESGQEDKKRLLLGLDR
- Experiment: Inhibition of CDK5/p25 (unknown origin) assessed as inhibition of phosphate incorporation using histone 1 and [gamma-33P]ATP as substrate after 30 mins by scintillation counting analysis
Measured quantity: IC50

Value sought: IC50, system Cyclin-dependent kinase 5/CDK5 activator 1 (Homo sapiens), item `COc1c(O)ccc2c(=O)c3c(O)cc4c(c3[nH]c12)C=CC(C)(C)O4` . Result: > 10 µM

----------
- Assay system: UniProt Q92630
- Sequence (Q92630 whole entry): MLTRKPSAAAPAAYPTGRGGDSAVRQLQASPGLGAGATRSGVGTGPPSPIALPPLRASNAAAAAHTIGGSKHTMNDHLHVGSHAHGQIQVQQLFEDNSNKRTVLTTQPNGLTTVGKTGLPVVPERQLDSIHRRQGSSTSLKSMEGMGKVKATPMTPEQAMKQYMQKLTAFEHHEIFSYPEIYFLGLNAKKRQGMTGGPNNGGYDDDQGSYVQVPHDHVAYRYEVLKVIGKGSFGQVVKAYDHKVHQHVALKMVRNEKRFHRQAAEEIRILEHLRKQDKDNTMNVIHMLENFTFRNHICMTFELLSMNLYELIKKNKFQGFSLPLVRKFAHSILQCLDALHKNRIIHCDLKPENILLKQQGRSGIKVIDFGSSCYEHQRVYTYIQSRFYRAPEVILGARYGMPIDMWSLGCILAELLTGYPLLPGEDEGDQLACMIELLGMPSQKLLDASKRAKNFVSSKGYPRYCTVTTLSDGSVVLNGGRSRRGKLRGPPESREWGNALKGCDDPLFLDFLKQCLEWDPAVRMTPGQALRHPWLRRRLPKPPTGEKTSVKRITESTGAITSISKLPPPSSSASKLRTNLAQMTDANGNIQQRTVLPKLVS
Measured quantity: pIC50
Scale note: pIC50 = -log10(concentration in M).

Lookup result for `COc1c(O)ccc2c(=O)c3c(O)cc4c(c3[nH]c12)C=CC(C)(C)O4` ; measured pIC50: 5.77

----------
- Experiment: Inhibition of CK1 delta/epsilon in porcine brain assessed as inhibition of phosphate incorporation using RRKHAAIGpSAYSITA and [gamma-33P]ATP as substrate after 30 mins by scintillation counting analysis
- Design: species or system Sus scrofa
Measured quantity: IC50 (µM)
Please respond with the number in µM and leave the unit unwritten.

Lookup result for `COc1c(O)ccc2c(=O)c3c(O)cc4c(c3[nH]c12)C=CC(C)(C)O4` ; measured IC50: 8.7
